Target: T1, hT40 (T441, SEQ ID NO: 1) (Homo sapiens, UniProt P10636)
T1 construct: Full length tau (hT40)
T1 sequence (P10636 1-441 isoform P10636-8): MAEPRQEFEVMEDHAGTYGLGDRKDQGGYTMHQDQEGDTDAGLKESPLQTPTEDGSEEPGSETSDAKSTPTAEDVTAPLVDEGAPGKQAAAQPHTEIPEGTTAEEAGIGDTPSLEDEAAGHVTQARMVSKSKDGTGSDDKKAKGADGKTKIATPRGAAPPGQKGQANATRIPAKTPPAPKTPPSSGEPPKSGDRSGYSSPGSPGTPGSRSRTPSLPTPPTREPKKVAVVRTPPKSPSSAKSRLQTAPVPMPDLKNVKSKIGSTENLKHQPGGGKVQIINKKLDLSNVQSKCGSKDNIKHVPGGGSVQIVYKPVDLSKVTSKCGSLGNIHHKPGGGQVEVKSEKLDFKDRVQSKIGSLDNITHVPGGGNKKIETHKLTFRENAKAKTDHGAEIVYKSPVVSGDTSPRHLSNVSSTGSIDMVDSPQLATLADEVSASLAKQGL
Experiment: Biacore X100 SPR kinetics of scAbs for hT40
Assay type: binding
Details: Table 25; '3a' and '3b' scAbs, hT40
resultType: kd (s⁻¹)
The reply should be a number in s⁻¹, with the unit left off.

Q: Need kd, item 3aB7: anti-tau clone, Table 7; SEQ ID NO: 420 (protein, 3aB7 amino acid sequence) QVQLQESGPSLVKPSQTLSLTCTVSGFSLTSNGVGWVRQAPGKVPEWVGDKSSAGKTYGNPALKSRLSITRDTSKSQVSLSLSSVTTEDTAVYYCVRCRDGGVTYGYDVDYWGPGLLVTVSSEGKSSGASGESKVDDQAVLTQPSSVSKSLGQSVSITCSGSSSNVGYGDVVSWFQQFPGSAPKLLIFGTTTRASGVPDRFSGSRSGNAATLTINSLQAEDEADYYCASFDSDSGGIAGSGTRLTVLG
Ans: 0.01435

Q: Given 3aH6: N-terminal anti-tau clone, Table 6; SEQ ID NO: 423 (protein, 3aH6 amino acid sequence) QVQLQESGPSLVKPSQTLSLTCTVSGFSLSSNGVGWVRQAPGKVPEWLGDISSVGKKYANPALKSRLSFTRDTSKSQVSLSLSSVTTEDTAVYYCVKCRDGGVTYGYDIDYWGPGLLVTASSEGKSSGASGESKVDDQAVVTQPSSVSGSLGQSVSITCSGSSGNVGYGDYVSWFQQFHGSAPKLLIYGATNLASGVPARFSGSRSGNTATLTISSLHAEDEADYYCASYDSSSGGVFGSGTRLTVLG , state its recorded kd.
Ans: 0.009868
